Source listed as paper PMC5874533.

# ASSAY_TEXT: Solubility study in buffer solutions pH 1.2-7.5 (shake flask, HPLC)
# Type: physicochemical
# ASSAY_CONTEXT: potassium phosphate buffer pH 6.8, 37 °C, pH 6.8, aqueous buffer, thermodynamic from solid, pH 6.8, 37 °C, batch 170215
READOUT_KIND: solubility at 96 h (mg/mL)
Just the number in mg/mL, nothing appended.

Look up solubility at 96 h for this compound: C[n+]1ccc(C(=O)NCc2ccccc2)cc1.[I-] [enisamium iodide]
131

---

# ASSAY_TEXT: Solubility study in buffer solutions pH 1.2-7.5 (shake flask, HPLC)
# Type: physicochemical
# ASSAY_CONTEXT: sodium acetate/acetic acid buffer pH 4.5, 25 °C, pH 4.5, aqueous buffer, thermodynamic from solid, pH 4.5, 25 °C, batch 170215
READOUT_KIND: solubility at 96 h (mg/mL)
Just the number in mg/mL, nothing appended.

Look up solubility at 96 h for this molecule: C[n+]1ccc(C(=O)NCc2ccccc2)cc1.[I-] [enisamium iodide]
59.7

---

# ASSAY_TEXT: Solubility study in buffer solutions pH 1.2-7.5 (shake flask, HPLC)
# Assay type: physicochemical
# ASSAY_CONTEXT: potassium phosphate buffer pH 6.8, 25 °C, pH 6.8, aqueous buffer, thermodynamic from solid, pH 6.8, 25 °C, batch 190315
READOUT_KIND: solubility at 96 h (mg/mL)
Just the number in mg/mL, nothing appended.

Look up solubility at 96 h for this compound: C[n+]1ccc(C(=O)NCc2ccccc2)cc1.[I-] [enisamium iodide]
60.2

---

# ASSAY_TEXT: Solubility study in buffer solutions pH 1.2-7.5 (shake flask, HPLC)
# Assay type: physicochemical
# ASSAY_CONTEXT: hydrochloric acid/sodium chloride buffer pH 1.2, 37 °C, pH 1.2, simulated gastric fluid, thermodynamic from solid, pH 1.2, 37 °C, batch 180215
READOUT_KIND: solubility at 48 h (mg/mL)
Just the number in mg/mL, nothing appended.

Look up solubility at 48 h for this molecule: C[n+]1ccc(C(=O)NCc2ccccc2)cc1.[I-] [enisamium iodide]
155

---

# ASSAY_TEXT: Solubility study in buffer solutions pH 1.2-7.5 (shake flask, HPLC)
# Assay type: physicochemical
# ASSAY_CONTEXT: sodium acetate/acetic acid buffer pH 4.5, 25 °C, pH 4.5, aqueous buffer, thermodynamic from solid, pH 4.5, 25 °C, mean of three batches
READOUT_KIND: solubility at 96 h

Look up solubility at 96 h for this compound: C[n+]1ccc(C(=O)NCc2ccccc2)cc1.[I-] [enisamium iodide]
60 mg/mL

---

# ASSAY_TEXT: Solubility study in buffer solutions pH 1.2-7.5 (shake flask, HPLC)
# Assay type: physicochemical
# ASSAY_CONTEXT: potassium phosphate buffer pH 6.8, 25 °C, pH 6.8, aqueous buffer, thermodynamic from solid, pH 6.8, 25 °C, batch 180215
READOUT_KIND: solubility at 96 h
Answer by giving the amount and then stating its unit.

Look up solubility at 96 h for this compound: C[n+]1ccc(C(=O)NCc2ccccc2)cc1.[I-] [enisamium iodide]
59.5 mg/mL

---

# ASSAY_TEXT: Solubility study in buffer solutions pH 1.2-7.5 (shake flask, HPLC)
# Format: physicochemical
# ASSAY_CONTEXT: potassium phosphate buffer pH 7.5, 25 °C, pH 7.5, aqueous buffer, thermodynamic from solid, pH 7.5, 25 °C, batch 190315
READOUT_KIND: solubility at 96 h

Look up solubility at 96 h for this molecule: C[n+]1ccc(C(=O)NCc2ccccc2)cc1.[I-] [enisamium iodide]
59.1 mg/mL
